Where do the numbers come from? From ChEMBL document CHEMBL1146701.

assay: In vivo concentration in rat liver exposure 8 hour after oral administration 50 mg/kg; assay type: ADME, organism-based; parameters: dose 50 mg/kg, route oral; conditions: read-out: C
reported-property: concentration at 8 h (nM)
The figure you give is taken to be in nM; do not add the unit.

So, CCCC(NC(=O)[C@@H]1[C@H]2CCC[C@H]2CN1C(=O)[C@@H](NC(=O)[C@@H](NC(=O)c1cnccn1)C(C)C)C(C)C)C(=O)C(=O)NC1CC1 (stereo partly specified) ? Its concentration at 8 h was 500

---

assay: In vivo concentration in rat plasma exposure at 8 hour after oral administration 50 mg/kg; assay type: ADME, organism-based; parameters: dose 50 mg/kg, route oral; conditions: read-out: C
reported-property: concentration at 8 h (ng/mL)
Write the value in ng/mL as a bare number.

Given item CCCC(NC(=O)[C@@H]1[C@H]2CCC[C@H]2CN1C(=O)[C@@H](NC(=O)[C@@H](NC(=O)c1cnccn1)C(C)C)C(C)C)C(=O)C(=O)NC1CC1 (stereo partly specified) , the value recorded as its concentration at 8 h is 10

---

experiment: In vivo maximum concentration in rat plasma exposure after oral administration 50 mg/kg; assay type: ADME, organism-based; design: dose 50 mg/kg, route oral
reported-property: Cmax (ng/mL)
Form entry: value (ng/mL) — number only.

Given item CCCC(NC(=O)[C@@H]1[C@H]2CCC[C@H]2CN1C(=O)[C@@H](NC(=O)[C@@H](NC(=O)c1cnccn1)C(C)C)C(C)C)C(=O)C(=O)NC1CC1 (stereo partly specified) , the value recorded as its Cmax is 2250

---

Give measured inhibition for each item. Keep answers brief.
test system: Hepatitis C virus NS3 protease; test: Inhibitory activity against Protease using replicon assay […] at 25 uM concentration; conditions: Rattus norvegicus
Reply numerically in %, unit not repeated.

For CCCC(NC(=O)[C@@H]1[C@H]2CC[C@H](F)[C@H]2CN1C(=O)[C@@H](NC(=O)[C@@H](NC(=O)c1cnccn1)C(C)C)C(C)C)C(=O)C(=O)N[C@@H](Cc1ccccc1)C(=O)O (some centres undefined) the compound record lists inhibition as -8

For reference, reported inhibition for CCCC(NC(=O)[C@@H]1[C@H]2CC[C@H](F)[C@H]2CN1C(=O)[C@@H](NC(=O)[C@@H](NC(=O)c1cnccn1)C(C)C)C(C)C)C(=O)C(=O)NC1CC1 (some centres undefined) stands at 84

# inhibition of CCCC(NC(=O)[C@@H]1[C@H]2CC=C[C@H]2CN1C(=O)[C@@H](NC(=O)[C@@H](NC(=O)c1cnccn1)C(C)C)C(C)C)C(=O)C(=O)N[C@@H](C)c1ccccc1 (some centres undefined) = 97

get_value(item= CCCC(NC(=O)[C@@H]1[C@H]2CC=C[C@H]2CN1C(=O)[C@@H](NC(=O)[C@@H](NC(=O)c1cnccn1)C(C)C)C(C)C)C(=O)C(=O)N[C@@H](C)CC (some centres undefined) , readout=inhibition) returns 91

---

Kindly state inhibition for each of the entries shown.
test system: Hepatitis C virus NS3 protease; assay: Inhibitory activity against Protease using replicon assay […] at 25 uM concentration; details: Rattus norvegicus
Write the answer as a number in %, unit excluded.

Sure, the documented inhibition for CCCC(NC(=O)[C@@H]1[C@H]2CCC(F)(F)[C@H]2CN1C(=O)[C@@H](NC(=O)[C@@H](NC(=O)c1cnccn1)C(C)C)C(C)C)C(=O)C(=O)NC1CC1 (stereo partly drawn) is 64

In plain terms, CCCC(NC(=O)[C@@H]1[C@H]2CC[C@@H](OCOC)C2CN1C(=O)[C@@H](NC(=O)[C@@H](NC(=O)c1cnccn1)C(C)C)C(C)C)C(=O)C(=O)N[C@@H](C)c1ccccc1 (stereo partly drawn) has a documented inhibition of 98

Noted for CCCC(NC(=O)[C@@H]1[C@H]2CC[C@H](F)[C@H]2CN1C(=O)[C@@H](NC(=O)[C@@H](NC(=O)c1cnccn1)C(C)C)C(C)C)C(=O)C(=O)N[C@@H](C)c1ccccc1 (stereo partly drawn) : its inhibition reads 97
